System: NCI-H522
measurement_description: NCI tumour cell line growth inhibition, 48 h
Active and inactive are the calls of the source. Rule as the data show it: active = GI50 up to about 1.1 µM and inactive = higher.
Pick from active, inactive when you respond.

Some solved entries appear below for comparison.
* O=Cc1ccc(-c2nccc3c2[nH]c2ccccc23)o1 | inactive
* COC(=O)c1c2c(cc3c1CC1(Cc4ccccc4C1)C3)CCC2 | inactive
* COc1cc(Br)cc2cc(-c3cn4c(n3)sc3ccccc34)c(=O)oc12 | inactive
* NC1CC2NC3CCCCC3NC2CC1N (stereo not given) | inactive
* COC(=O)C1=C(C)C(=O)C2(CCCCCC2C(=O)OC)C1 (stereo not given) | inactive
* COC(=O)c1cnn2c1n[n+]([O-])c1ccccc12 | inactive
* Nc1ccc2c(c1)S(=O)(=O)c1cc(N)ccc1-2 | inactive
* O=C1C(Br)=C(c2ccccc2)C(c2ccccc2)=C1c1ccccc1 | active
* CC(=O)O[C@H]1C(=O)[C@@]2(C)[C@H]([C@H](OC(=O)c3ccccc3)[C@]3(O)C[C@H](OC(=O)[C@H](O)[C@@H](NC(=O)C(C)(C)C)c4ccccc4)C(C)=C1C3(C)C)[C@]1(OC(C)=O)CO[C@@H]1C[C@@H]2O | active
* Cc1ccccc1S(=O)(=O)OC1NS(=O)(=O)c2ccccc21 (stereo not given) | inactive

INPUT: What did the test return for `c1ccncc1` ?
OUTPUT: inactive

INPUT: Tell me the assay call for `COC1(OC)C=CC(=O)C=C1` please.
OUTPUT: active
